Assay: Retention index (RI) measurement by GC/MS
Type: physicochemical
Conditions: HP-5 MS column (95% dimethylpolysiloxane/5% phenyl-methylpolysiloxane), 1000 ppm in ethanol, n-alkane mixture C6-C35, linear method
Listing of recorded Retention index (RI) by entry.
The answer should be a number; do not append a unit.

COMPOUND	REPORTED_VALUE
CNC(=O)C(C)(C(C)C)C(C)C [Symcool® WS-23, 2-isopropyl-N,2,3-trimethylbutyramide]	1287
CC(O)CC(=O)O[C@@H]1C[C@H](C)CC[C@H]1C(C)C (stereo partly drawn) [COOLACT® 20, L-menthyl-3-hydroxybutyrate]	1611

q: Report Retention index (RI), nothing else, for this compound: CC(C)C1CCC(C)(C)CC1C(=O)NCC(O)c1ccccc1 (stereo not shown)
a: 2477

q: Report Retention index (RI), nothing else, for this compound: CC1CCC(C(C)C)C(O)C1 (stereo not shown)
a: 1173
